Target: human Nav1.7 (Homo sapiens)
Construct: expressed in transfected cells; host or cells: HEK 293T
Test: Patch clamp recording of heterologously expressed human Nav1.7 currents in HEK 293T cells
Type: cell-based
Conditions: Vh of −60 mV; 50-ms depolarizing pulse to 0 mV; HEK 293T cells; mean±SEM (n=4-10); read-out: IC50 for human Nav1.7 inhibition
Parameter Measured: IC50 (µM)

Cpd Smiles: COc1ccc(CN(CCN(C)C)c2ccccn2)cc1
Experimental Result: 4

###

Biological target: human Nav1.7 (Homo sapiens, UniProt Q15858)
Construct: expressed in transfected cells; host or cells: HEK 293T
Sequence (Q15858 whole entry): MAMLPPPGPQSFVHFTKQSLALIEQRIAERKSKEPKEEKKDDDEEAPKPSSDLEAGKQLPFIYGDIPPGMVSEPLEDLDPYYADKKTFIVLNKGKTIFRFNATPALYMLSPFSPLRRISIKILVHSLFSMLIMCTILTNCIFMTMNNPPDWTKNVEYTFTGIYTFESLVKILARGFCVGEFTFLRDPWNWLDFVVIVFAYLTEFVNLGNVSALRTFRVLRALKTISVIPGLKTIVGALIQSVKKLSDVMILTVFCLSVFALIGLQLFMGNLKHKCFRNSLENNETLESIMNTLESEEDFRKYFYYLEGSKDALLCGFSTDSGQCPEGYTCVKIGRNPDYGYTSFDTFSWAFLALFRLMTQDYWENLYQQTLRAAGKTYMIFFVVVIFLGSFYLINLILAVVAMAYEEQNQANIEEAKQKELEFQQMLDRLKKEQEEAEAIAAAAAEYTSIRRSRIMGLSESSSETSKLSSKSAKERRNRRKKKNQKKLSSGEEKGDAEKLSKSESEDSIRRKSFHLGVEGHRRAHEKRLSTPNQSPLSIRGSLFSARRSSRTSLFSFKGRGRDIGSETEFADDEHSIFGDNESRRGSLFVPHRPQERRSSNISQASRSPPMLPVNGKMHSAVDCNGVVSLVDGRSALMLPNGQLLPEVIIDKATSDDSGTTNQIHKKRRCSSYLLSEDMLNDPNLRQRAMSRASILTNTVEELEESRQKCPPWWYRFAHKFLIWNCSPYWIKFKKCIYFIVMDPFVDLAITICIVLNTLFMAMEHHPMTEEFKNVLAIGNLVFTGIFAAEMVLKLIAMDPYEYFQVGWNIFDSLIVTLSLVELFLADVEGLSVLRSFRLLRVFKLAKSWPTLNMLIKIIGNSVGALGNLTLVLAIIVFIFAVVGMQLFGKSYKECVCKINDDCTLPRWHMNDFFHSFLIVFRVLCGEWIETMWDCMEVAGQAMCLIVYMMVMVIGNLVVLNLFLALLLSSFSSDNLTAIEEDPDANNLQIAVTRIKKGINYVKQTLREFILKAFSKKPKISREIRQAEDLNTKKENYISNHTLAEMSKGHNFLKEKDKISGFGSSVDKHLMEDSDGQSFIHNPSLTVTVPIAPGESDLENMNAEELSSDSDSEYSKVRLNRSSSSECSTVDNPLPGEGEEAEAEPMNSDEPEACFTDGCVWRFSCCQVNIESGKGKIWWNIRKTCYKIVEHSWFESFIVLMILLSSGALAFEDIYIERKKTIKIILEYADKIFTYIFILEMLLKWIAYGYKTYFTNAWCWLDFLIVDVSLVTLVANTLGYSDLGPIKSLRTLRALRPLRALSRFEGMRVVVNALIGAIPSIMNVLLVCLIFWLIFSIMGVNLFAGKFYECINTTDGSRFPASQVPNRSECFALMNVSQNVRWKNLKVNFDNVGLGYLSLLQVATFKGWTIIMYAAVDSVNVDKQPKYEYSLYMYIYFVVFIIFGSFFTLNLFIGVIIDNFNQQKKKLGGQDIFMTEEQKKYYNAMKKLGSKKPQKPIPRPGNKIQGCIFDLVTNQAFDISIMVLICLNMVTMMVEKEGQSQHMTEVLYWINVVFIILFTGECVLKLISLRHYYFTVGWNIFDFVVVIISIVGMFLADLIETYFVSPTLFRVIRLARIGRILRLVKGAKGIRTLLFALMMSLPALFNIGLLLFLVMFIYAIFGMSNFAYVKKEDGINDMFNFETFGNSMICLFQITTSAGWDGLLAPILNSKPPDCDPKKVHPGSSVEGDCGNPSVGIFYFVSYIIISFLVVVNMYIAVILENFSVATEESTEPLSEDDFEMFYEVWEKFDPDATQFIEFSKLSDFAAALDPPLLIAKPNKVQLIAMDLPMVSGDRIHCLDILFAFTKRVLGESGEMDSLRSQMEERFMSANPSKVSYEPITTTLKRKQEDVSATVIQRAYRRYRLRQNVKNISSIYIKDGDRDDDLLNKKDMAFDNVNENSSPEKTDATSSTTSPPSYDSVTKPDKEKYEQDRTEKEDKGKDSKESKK
Assay: Patch clamp recording of heterologously expressed human Nav1.7 currents in HEK 293T cells
Type: cell-based
Settings: Vh of −100 mV; 50-ms depolarizing pulse to 0 mV; HEK 293T cells; mean±SEM (n=4-10); read-out: IC50 for human Nav1.7 inhibition

Cpd Smiles: COc1ccc(CN(CCN(C)C)c2ccccn2)cc1
Unit String: µM
IC50: 15.3
